Reference for the values: patent US20240287080A1

molecular target: Pol theta (1-899) (Homo sapiens, UniProt O75417); construct: Pol theta (1-899) (5 nM) in assay buffer; assay: Pol theta ATPase activity, NADH oxidation-coupled enzymatic assay (ATPase NADH coupling: Standard Screening: hPolQ); assay type: biochemical; conditions: Pol theta (1-899) 5 nM, NADH oxidation-coupled ATPase assay; compounds of Table 3
Sequence (O75417 1-899): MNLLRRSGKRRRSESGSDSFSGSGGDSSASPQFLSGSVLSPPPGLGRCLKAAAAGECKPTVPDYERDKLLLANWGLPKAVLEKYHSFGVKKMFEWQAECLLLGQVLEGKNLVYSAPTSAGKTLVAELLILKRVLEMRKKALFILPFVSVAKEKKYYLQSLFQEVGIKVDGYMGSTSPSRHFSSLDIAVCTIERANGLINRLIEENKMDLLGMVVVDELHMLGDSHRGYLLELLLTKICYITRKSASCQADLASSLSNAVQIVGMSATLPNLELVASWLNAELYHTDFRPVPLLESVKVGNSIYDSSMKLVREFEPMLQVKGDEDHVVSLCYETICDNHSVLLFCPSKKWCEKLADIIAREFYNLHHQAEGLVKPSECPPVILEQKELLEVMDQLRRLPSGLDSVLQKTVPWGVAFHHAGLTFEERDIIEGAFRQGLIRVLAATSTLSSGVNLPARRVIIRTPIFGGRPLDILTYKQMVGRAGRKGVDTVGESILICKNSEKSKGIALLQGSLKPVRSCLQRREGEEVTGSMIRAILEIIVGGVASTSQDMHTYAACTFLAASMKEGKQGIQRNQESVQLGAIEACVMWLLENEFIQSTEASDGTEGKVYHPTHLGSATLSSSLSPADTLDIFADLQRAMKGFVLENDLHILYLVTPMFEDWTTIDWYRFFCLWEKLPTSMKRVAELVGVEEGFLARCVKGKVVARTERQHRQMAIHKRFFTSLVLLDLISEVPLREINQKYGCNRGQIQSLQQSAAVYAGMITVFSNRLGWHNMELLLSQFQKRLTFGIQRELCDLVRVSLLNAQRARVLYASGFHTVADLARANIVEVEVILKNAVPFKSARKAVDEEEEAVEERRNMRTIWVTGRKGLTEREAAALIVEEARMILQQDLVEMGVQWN
measured property: IC50

Task: Given COc1nnc(NC(=O)c2cnc(C)cc2-c2ccc(OC(F)(F)F)cc2)s1 [Example 376] , state its recorded IC50.
Result: 1 to 10 µM

Task: What do you get for COc1ccc(-c2cc(C)ncc2C(=O)Nc2nnc(OC)s2)c(F)c1 [Example 445] ?
Result: 1 to 10 µM

Task: What do you get for COc1nnc(NC(=O)c2cnc(C)cc2-c2cccc(OC(F)(F)F)c2)s1 [Example 408] ?
Result: 0.5 to 1 µM

Task: What do you get for COc1cnc(C)c(F)c1-c1cc(C)ncc1C(=O)Nc1nnc(OCCN(C)CC(F)(F)F)s1 [Example 258] ?
Result: ≤ 0.2 µM

Task: What do you get for COc1nnc(NC(=O)c2cnc(C)cc2-c2ccc(CN(C)C)nc2)s1 [Example 474] ?
Result: 1 to 10 µM

Task: What do you get for COc1nnc(NC(=O)c2cnc(C)cc2-c2cnn3c2CCCC3)s1 [Example 395] ?
Result: 1 to 10 µM

Task: What do you get for COc1cc(C(=O)Nc2nnc(OC)s2)c(-c2cc(Cl)ncc2OC)cn1 [Example 242] ?
Result: ≤ 0.2 µM

Task: What do you get for COc1nnc(NC(=O)c2cnc(C)cc2-c2ccc(OC(F)F)cc2)s1 [Example 448] ?
Result: 1 to 10 µM

Task: What do you get for COc1nnc(NC(=O)c2cnc(C)cc2-c2cc(C)cc(C)c2)s1 [Example 358] ?
Result: 0.5 to 1 µM

Task: What do you get for COc1nnc(NC(=O)c2cnc(C)cc2-c2ccc(OC)c(F)c2)s1 [Example 419] ?
Result: 1 to 10 µM

Task: What do you get for COc1ccc(-c2cc(C)ncc2C(=O)Nc2nnc(OC)s2)cc1 [Example 377] ?
Result: 1 to 10 µM

Task: What do you get for COc1nnc(NC(=O)c2cnc(C)cc2-c2cccc(S(=O)(=O)N(C)C)c2)s1 [Example 396] ?
Result: 1 to 10 µM

Task: What do you get for COc1nnc(NC(=O)c2cnc(C)cc2-c2ccnc(C)c2)s1 [Example 404] ?
Result: 1 to 10 µM

Task: What do you get for COc1cnc(Cl)cc1-c1cc(C)ncc1C(=O)Nc1nnc(OC2CCCN(C3COC3)C2)s1 (stereo not shown) [Example 250] ?
Result: ≤ 0.2 µM

Task: What do you get for COc1cnc(Cl)c(F)c1-c1cc(C)ncc1C(=O)Nc1nnc(O[C@H]2CC[C@@H](CO)CC2)s1 [Example 245] ?
Result: ≤ 0.2 µM

Task: What do you get for COc1nnc(NC(=O)c2cnc(C)cc2-c2cnn(-c3ccccc3)c2)s1 [Example 460] ?
Result: 1 to 10 µM

Task: What do you get for COc1cnc(Cl)cc1-c1cc(C)ncc1C(=O)Nc1nnc(OC2([C@@H]3CCOC3)CC2)s1 (single isomer, unassigned) [Example 299] ?
Result: ≤ 0.2 µM

Task: What do you get for COc1nnc(NC(=O)c2cc(OC)c(C)cc2-c2cc(Cl)ncc2OC)s1 [Example 301] ?
Result: ≤ 0.2 µM

Task: What do you get for COc1nnc(NC(=O)c2cnc(C)cc2-c2cc(C)nc(C)c2)s1 [Example 469] ?
Result: 0.2 to 0.5 µM

Task: What do you get for COc1nnc(NC(=O)c2cc(CC#N)ncc2-c2cc(Cl)ncc2OC)s1 [Example 302] ?
Result: ≤ 0.2 µM

Task: What do you get for COc1cnc(Cl)c(F)c1-c1cc(C)ncc1C(=O)Nc1nnc(O[C@H]2CC[C@H](CO)CC2)s1 [Example 316] ?
Result: ≤ 0.2 µM

Task: What do you get for COc1nnc(NC(=O)c2cnc(C)cc2-c2cc(Cl)c(S(C)(=O)=O)cc2OC)s1 [Example 272] ?
Result: ≤ 0.2 µM

Task: What do you get for COc1nnc(NC(=O)c2cnc(C)cc2-c2cc(C(F)(F)F)cc(C(F)(F)F)c2)s1 [Example 333] ?
Result: 1 to 10 µM

Task: What do you get for COc1nnc(NC(=O)c2cnc(C)cc2-c2cccc(F)c2)s1 [Example 421] ?
Result: 0.5 to 1 µM

Task: What do you get for COc1nnc(NC(=O)c2cnc(C)cc2-c2ccc(F)cc2C)s1 [Example 428] ?
Result: 0.5 to 1 µM
